tested on: EsNMT; test: N-alkylation substrate screen using EsNMT (LC-MS); assay type: biochemical, Ephedra sinica; design: key: −=no detectable quantities of product N-alkylated compound; Trace, +, ++, +++=increasing relative levels of product N-alkylated compound; Trace, +, ++, +++=increasing relative levels of product N-alkylated compound; Trace, +, ++, +++=increasing relative levels of product N-alkylated compound; Trace, +, ++, +++=increasing relative levels of product N-alkylated compound; conditions: 25 μg protein, 1 mM substrate, 1 mM SAM, 60 mM HEPES pH 8, 16 hours at 37° C.; relative level of N-alkylated product by LC-MS
measurement_type: N-alkylation of substrate alkaloid compounds, Enzyme EsNMT

Here's what some known entries look like.
• CN[C@@H](C)[C@H](O)c1ccccc1 [Ephedrine, ephedrine, reference compound] = +
• COc1cc2c(cc1OC)CNCC2 = +++
• N[C@@H](Cc1ccc(O)c(O)c1)C(=O)O [3,4-dihydroxyphenylalanine] = −
• COc1ccc(Cc2nccc3cc(OC)c(OC)cc23)cc1OC [Papaverine, papaverine, reference compound] = Trace
• Oc1ccc(CC2NCCc3cc(O)c(O)cc32)cc1O (stereo not shown) = −

Q: Endpoint output: N-alkylation of substrate alkaloid compounds, Enzyme EsNMT of "COc1cc(CCN)cc(OC)c1OC" . Value?
Ans: +

Q: Endpoint output: N-alkylation of substrate alkaloid compounds, Enzyme EsNMT of "NCCc1c[nH]cn1" . Value?
Ans: −

Q: Endpoint output: N-alkylation of substrate alkaloid compounds, Enzyme EsNMT of "COc1ccc2c3c([nH]c2c1)C(C)=NCC3" . Value?
Ans: +

Q: Endpoint output: N-alkylation of substrate alkaloid compounds, Enzyme EsNMT of CC(N)c1ccccc1 (stereo not shown) . Value?
Ans: −

Q: Endpoint output: N-alkylation of substrate alkaloid compounds, Enzyme EsNMT of CC(C)NC[C@H](O)COc1cccc2ccccc12 (racemic) [Propanolol, propanolol, reference compound] . Value?
Ans: +
